Each recorded value in this set is attributed to ChEMBL document CHEMBL1821550.

test: physchem; details: octanol/water
Provide the reported logD of each item.
Hey, just send me the number, nothing else.

What value of measured logD is listed for `O=c1c2ccccc2ncn1-c1ccc(OCCCN2CCCC2)cc1` ?
1.6

Would you kindly repeat that for `O=C(/C=C/c1ccc(C(F)(F)F)cc1)N1CCC[C@H]1CN1CCCC1` ?
2.4

Would you kindly repeat that for `Cc1cccc2c(=O)n(C)c(-c3ccc(OC4CCN(C5CCC5)CC4)cc3)nc12` ?
2.7

Would you kindly repeat that for `Cn1c(-c2ccc(OC3CCN(C4CCC4)CC3)cc2)nc2c(C(F)(F)F)cccc2c1=O` ?
3.1

Would you kindly repeat that for `C[C@@H]1CCCN1CCc1ccc2nc(-c3cc(Br)no3)ccc2c1` ?
3.4

Would you kindly repeat that for COc1cccc2c1OC(c1ccc(OCCCN3CCC[C@@H]3C)cc1)C(C)S2(=O)=O (stereo not given in full) ?
2.6

Would you kindly repeat that for `O=C(N1CCN(C2CC2)CC1)N1Cc2ccccc2C1` ?
0.1

Would you kindly repeat that for `Cc1ccc2nc(C)n(-c3ccc(OCCCN4CCCC4)cc3)c(=O)c2c1` ?
2.2

Would you kindly repeat that for COC(=O)N1CC(Oc2ccc(F)cc2)CC1C(=O)N1CCCN(C2CCC2)CC1 (stereo not given) ?
1.8

Would you kindly repeat that for `CCOC(=N)c1ccc(-c2ccc3cc(CCN4CCC[C@H]4C)ccc3n2)s1` ?
4.1

---

assay: physchem; details: octanol/water
Test readout: logD
Hey, just send me the number, nothing else.

What value of measured logD is listed for `c1cc(C2=NCCO2)ccc1OCCCN1CCCCC1` ?
1.3

Would you kindly repeat that for `C[C@H]1[C@H](c2ccc(OCCCN3CCCC3)cc2)Oc2ccccc2S1(=O)=O` ?
2.2

Would you kindly repeat that for `c1cc(C2CCOCC2)ccc1OCCCN1CCCCC1` ?
1.8

Would you kindly repeat that for `c1coc(-c2ccc(OCCCN3CCCCC3)cc2)c1` ?
2.3

Would you kindly repeat that for `Cn1c(-c2ccc(OC3CCN(C4CCC4)CC3)cc2)nc2c(F)cccc2c1=O` ?
2.4

Would you kindly repeat that for `C[C@@H]1CCCN1CCc1ccc(-c2ccc(S(=O)(=O)Nc3ccccc3)cc2)cc1` ?
3.5

Would you kindly repeat that for `C[C@@H]1CCCN1CCc1ccc2nc(-c3cncnc3)ccc2c1` ?
1.9

Would you kindly repeat that for `Cc1c(-c2ccc3cc(CCN4CCC[C@H]4C)ccc3n2)cnn1-c1ccccn1` ?
3.4

Would you kindly repeat that for CCC(CO)NS(=O)(=O)c1ccc(-c2ccc(CCN3CCC[C@H]3C)cc2)cc1 (stereo partly specified) ?
2.3

Would you kindly repeat that for `c1c[nH]c(-c2ccc(OCCCN3CCCCC3)cc2)n1` ?
1.6

Would you kindly repeat that for `C[C@@H]1CCCN1CCc1ccc2nc(-c3ccn4ncnc4n3)ccc2c1` ?
2.5

---

assay: physchem; settings: octanol/water
Provide the reported logD of each item.

What value of measured logD is listed for `Cc1nc(C)c(-c2ccc3cc(CCN4CCC[C@H]4C)ccc3n2)s1` ?
2.9

Would you kindly repeat that for `Cc1nc(-c2ccccn2)sc1-c1ccc2cc(CCN3CCC[C@H]3C)ccc2n1` ?
3.9

Would you kindly repeat that for `Cc1n[nH]c(C)c1-c1ccc2cc(CCN3CCC[C@H]3C)ccc2n1` ?
2.5

Would you kindly repeat that for COc1cccc2c1OC(c1ccc(OCCCN3CCC[C@H](C)C3)cc1)C(C)S2(=O)=O (stereo partly specified) ?
3.3

Would you kindly repeat that for `Cc1nc2ncccc2cc1-c1ccc2cc(CCN3CCC[C@H]3C)ccc2n1` ?
3.1

Would you kindly repeat that for `Cc1nc(-c2cccnc2)sc1-c1ccc2cc(CCN3CCC[C@H]3C)ccc2n1` ?
3.5

Would you kindly repeat that for `Cc1ccc(-c2ccc3cc(CCN4CCC[C@H]4C)ccc3n2)cn1` ?
2.8

Would you kindly repeat that for `Cc1ccc(-c2ccc3cc(CCN4CCC[C@H]4C)ccc3n2)c(C)n1` ?
3.1

Would you kindly repeat that for `C[C@@H]1CCCN1CCc1ccc2nc(-c3ccc4nccnc4c3)ccc2c1` ?
3.1

Would you kindly repeat that for c1cc(C2CCCCO2)ccc1OCCCN1CCCCC1 (stereo unspecified) ?
2.1

Would you kindly repeat that for `c1ncc(-c2ccc(OCCCN3CCCCC3)cc2)o1` ?
1.1

---

Provide the reported logD of each item.
assay: physchem; settings: octanol/water
Hey, just send me the number, nothing else.

What value of measured logD is listed for `CCc1nc2ccccc2c(=O)n1-c1ccc(OCCCN2CCCC2)cc1` ?
2.4

Would you kindly repeat that for `CC(=O)Nc1ccc(-c2cc3sc(N4CCC(N5CCCCC5)CC4)nc3cn2)cn1` ?
0.8

Would you kindly repeat that for CC1CCCN1CCc1ccc2nc(-c3cccs3)ccc2c1 (stereo not drawn) ?
3.6

Would you kindly repeat that for `C[C@@H]1CCCN1CCc1ccc2nc(-c3cccnc3)ccc2c1` ?
2.5

Would you kindly repeat that for `Nc1cnc(-c2cc3sc(N4CCC(N5CCCCC5)CC4)nc3cn2)cn1` ?
0.2

Would you kindly repeat that for `Cc1[nH]ncc1-c1ccc2cc(CCN3CCC[C@H]3C)ccc2n1` ?
2.4

Would you kindly repeat that for `C[C@@H]1CCCN1CCc1ccc(-c2ccc(S(=O)(=O)NC3CCOCC3)cc2)cc1` ?
1.8

Would you kindly repeat that for `Nc1ccc(-c2cnc3nc(N4CCC(N5CCCCC5)CC4)sc3c2)cn1` ?
0.7

Would you kindly repeat that for `COc1ccc2nc(-c3ccc(OC4CCN(C5CCC5)CC4)cc3)n(C)c(=O)c2c1` ?
2.2

Would you kindly repeat that for c1cc(C2CCCO2)ccc1OCCCN1CCCCC1 (stereo not drawn) ?
1.7

Would you kindly repeat that for `Cc1nc2ccccc2c(=O)n1-c1ccc(OCCCN2CCCC2)cc1` ?
1.7

Would you kindly repeat that for `CCNS(=O)(=O)c1ccc(-c2ccc(CCN3CCC[C@H]3C)cc2)cc1` ?
2.3

Would you kindly repeat that for `CC1CCN(c2ccc3cc(CCN4CCC[C@H]4C)ccc3n2)CC1` ?
2.9

Would you kindly repeat that for `COc1cccc2c(=O)n(C)c(-c3ccc(OC4CCN(C5CCC5)CC4)cc3)nc12` ?
2.2

Would you kindly repeat that for `C[C@@H]1CCCN1CCc1ccc(-c2ccc(S(N)(=O)=O)cc2)cc1` ?
1.8

Would you kindly repeat that for `c1cc(C2CCCCC2)ccc1OCCCN1CCCCC1` ?
3.6

Would you kindly repeat that for COc1cccc2c1OC(c1ccc(OCCCN3CCC[C@H]3C)cc1)C(C)S2(=O)=O (stereo partly drawn) ?
2.6

Would you kindly repeat that for `Fc1ncccc1-c1cnc2nc(N3CCC(N4CCCCC4)CC3)sc2c1` ?
1.5

Would you kindly repeat that for `C[C@@H]1CCCN1CCc1ccc2nc(-c3ccc(C#N)cc3)ccc2c1` ?
3.5

Would you kindly repeat that for `CC(C)N1CCN(C(=O)N2CCc3ccccc3C2)CC1` ?
1

Would you kindly repeat that for CC1CCCN1CCc1ccc2nc(-c3ccoc3)ccc2c1 (stereo not drawn) ?
2.7

Would you kindly repeat that for `C[C@@H]1CCCN1CCc1ccc(-c2ccc(S(=O)(=O)N3CCCCC3)cc2)cc1` ?
3.1

Would you kindly repeat that for `Cc1c(-c2ccc3cc(CCN4CCC[C@H]4C)ccc3n2)cnn1C` ?
2.5

---

assay: physchem; conditions: octanol/water
Grouping by measured logD is done with the following cut points: interval 1: < 2; interval 2: ≥ 2 and < 3; interval 3: ≥ 3

Category of `Cc1ccc2c(=O)n(-c3ccc(OCCCN4CCCC4)cc3)c(C)nc2c1` , please.
interval 2

Would you kindly repeat that for `c1csc(-c2ccc(OCCCN3CCCCC3)cc2)c1` ?
interval 2

Would you kindly repeat that for `CCCNS(=O)(=O)c1ccc(-c2ccc(CCN3CCC[C@H]3C)cc2)cc1` ?
interval 2

Would you kindly repeat that for `c1ncc(-c2cnc3nc(N4CCC(N5CCCCC5)CC4)sc3c2)cn1` ?
interval 1

Would you kindly repeat that for `COc1ncc(-c2ccc3cc(CCN4CCC[C@H]4C)ccc3n2)cn1` ?
interval 2

Would you kindly repeat that for `c1ncc(-c2cc3sc(N4CCC(N5CCCCC5)CC4)nc3cn2)cn1` ?
interval 1

Would you kindly repeat that for `C[C@@H]1CCCN1CCc1ccc(-c2ccc(S(=O)(=O)N3CCOCC3)cc2)cc1` ?
interval 1

Would you kindly repeat that for `C[C@@H]1CCCN1CCc1ccc2nc(-c3cn4c(n3)SCC4)ccc2c1` ?
interval 3

Would you kindly repeat that for `C[C@@H]1CCCN1CCc1ccc2nc(-c3ccccn3)ccc2c1` ?
interval 2

Would you kindly repeat that for `COc1cc(-c2cc3sc(N4CCC(N5CCCCC5)CC4)nc3cn2)ccn1` ?
interval 1

Would you kindly repeat that for `CCOc1ccc(-n2ncc(-c3ccc4cc(CCN5CCC[C@H]5C)ccc4n3)c2C)nn1` ?
interval 3

Would you kindly repeat that for `C[C@@H]1CCCN1CCc1ccc2nc(-c3nccs3)ccc2c1` ?
interval 2

Would you kindly repeat that for `Cc1nc2cc(F)ccc2c(=O)n1-c1ccc(OCCCN2CCCC2)cc1` ?
interval 1

Would you kindly repeat that for `CC1=C(c2ccc(OCCCN3CCCC3)cc2)Oc2ccccc2S1(=O)=O` ?
interval 1

Would you kindly repeat that for `C[C@@H]1Sc2ccccc2O[C@@H]1c1ccc(OCCCN2CCCC2)cc1` ?
interval 3

Would you kindly repeat that for `Cc1nc(-c2nc(-c3ccc4cc(CCN5CCC[C@H]5C)ccc4n3)cs2)cs1` ?
interval 3

Would you kindly repeat that for COCC1CCCN1S(=O)(=O)c1ccc(-c2ccc(CCN3CCC[C@H]3C)cc2)cc1 (some centres not stated) ?
interval 2

Would you kindly repeat that for `C[C@@H]1CCCN1CCc1ccc2nc(-c3csc(-c4ccccc4)n3)ccc2c1` ?
interval 3

Would you kindly repeat that for `Clc1cc2sc(N3CCC(N4CCCCC4)CC3)nc2cn1` ?
interval 1

Would you kindly repeat that for CC1COCC(C)N1S(=O)(=O)c1ccc(-c2ccc(CCN3CCC[C@H]3C)cc2)cc1 (some centres not stated) ?
interval 2

Would you kindly repeat that for `C=C(N(C)Cc1ccc(-c2ccccc2)cc1)N1CCN(C(C)C)CC1` ?
interval 1

Would you kindly repeat that for Cc1nc(C)c(-c2ccc3cc(CCN4CCCC4C)ccc3n2)cc1C(N)=O (configuration not stated) ?
interval 2
